Tested on: total cholesterol
Experiment: Anti-hyperlipemia activity, total cholesterol in blood
Type: in vivo, rabbit (Japanese white male)
Conditions: oral, 300 mg/kg once, 3 hrs.; negative = raising
measureName: Reduction of cholesterol level after 3 hrs. (mg/dL)
Supply the numeric figure in mg/dL, leaving out any unit text.

Worked examples follow.
[[record]]
molecule = "O=C(Oc1ccccc1)c1ccc(NC2OC[C@@H](O)[C@H](O)[C@H]2O)cc1 (stereo partly drawn) [Compound 8, phenyl p-aminobenzoate-N-D-xyloside]"
testedon = "total cholesterol"
reading = 6

[[record]]
molecule = "C[C@@H]1OC(Nc2ccccc2C(=O)Oc2ccccc2)[C@H](O)[C@H](O)[C@H]1O (stereo partly drawn) [Compound 6, phenyl o-aminobenzoate-N-L-rhamnoside]"
testedon = "total cholesterol"
reading = 4


Readout Reduction of cholesterol level after 3 hrs. for O=C(OCC1CCCCC1)c1ccc(NC2O[C@H](CO)[C@@H](O)[C@H](O)[C@H]2O)cc1 (stereo partly drawn) , test system total cholesterol, was 2

====

System: total cholesterol
Test: Anti-hyperlipemia activity, total cholesterol in blood
Assay type: in vivo, rabbit (Japanese white male)
Settings: oral, 300 mg/kg once, 3 hrs.; negative = raising
measureName: Reduction of cholesterol level after 3 hrs. (mg/dL)
Supply the numeric figure in mg/dL, leaving out any unit text.

[[record]]
compound = "O=C(OCc1ccccc1)c1ccc(NC2(CO)OC[C@@H](O)[C@@H](O)[C@@H]2O)cc1 (stereo partly drawn) [Compound 15, benzyl p-aminobenzoate-N-D-fructoside]"
testedon = "total cholesterol"
reading = -1


Reduction of cholesterol level after 3 hrs. for C[C@@H]1OC(Nc2cccc(C(=O)OCc3ccccc3)c2)[C@@H](O)[C@H](O)[C@@H]1O (stereo partly drawn) [Compound 11, benzyl m-aminobenzoate-N-L-fucoside] is -1

====

System: pyrexia (Saccharomyces cerevisiae)
Assay: Anti-pyrexia activity (yeast-induced)
Format: in vivo
Conditions: Rattus norvegicus, oral, read-out: Rate of inhibiting pyrexia (I.R.)
Each item that follows carries a reported inhibition in vivo at 1000 mg/kg.
Supply the numeric figure in %, leaving out any unit text.

Worked examples follow.
[[record]]
compound = "O=C(Oc1ccccc1)c1ccc(NC2O[C@H](CO)[C@@H](O[C@@H]3O[C@H](CO)[C@@H](O)[C@H](O)[C@H]3O)[C@H](O)[C@H]2O)cc1 (some centres unmarked) [Compound 9, phenyl p-aminobenzoate-N-cellobioside]"
testedon = "pyrexia (Saccharomyces cerevisiae)"
measurename = "inhibition in vivo at 1000 mg/kg"
reading = 32

[[record]]
compound = "C[C@@H]1OC(Nc2ccccc2C(=O)Oc2ccccc2)[C@H](O)[C@H](O)[C@H]1O (stereo partly drawn) [Compound 6, phenyl o-aminobenzoate-N-L-rhamnoside]"
testedon = "pyrexia (Saccharomyces cerevisiae)"
measurename = "inhibition in vivo at 1000 mg/kg"
reading = 69

[[record]]
compound = "O=C(Oc1ccccc1)c1ccc(NC2O[C@H](CO)[C@@H](O[C@H]3O[C@H](CO)[C@@H](O[C@H]4O[C@H](CO)[C@@H](O)[C@H](O)[C@H]4O)[C@H](O)[C@H]3O)[C@H](O)[C@H]2O)cc1 (some centres unmarked) [Compound 10, phenyl p-aminobenzoate-N-maltotrioside]"
testedon = "pyrexia (Saccharomyces cerevisiae)"
measurename = "inhibition in vivo at 1000 mg/kg"
reading = 41

[[record]]
compound = "C[C@@H]1OC(Nc2ccc(C(N)=O)cc2)[C@H](O)[C@H](O)[C@H]1O (stereo partly drawn) [Compound 5, p-aminobenzoic acid amide-N-L-rhamnoside]"
testedon = "pyrexia (Saccharomyces cerevisiae)"
measurename = "inhibition in vivo at 1000 mg/kg"
reading = 59


inhibition in vivo at 1000 mg/kg for O=C(Oc1ccccc1)c1cccc(NC2O[C@H](CO)[C@@H](O)[C@H](O)[C@@H]2O)c1 (stereo partly drawn) [Compound 7, phenyl m-aminobenzoate-N-D-mannoside] is 31

inhibition in vivo at 1000 mg/kg for C[C@@H]1OC(Nc2cccc(C(=O)OCC3CCCCC3)c2)[C@@H](O)[C@H](O)[C@@H]1O (some centres unmarked) [Compound 22] is 29
